Test: Toxicokinetics after intravenous injection in mice
Assay type: in vivo
Details: mouse, plasma; male ICR mice, iv bolus 0.8 mg/kg, CLxMRT, mean ± SD, n = 7; read-out: Vss

test_smiles: CC[C@H](C)[C@@H]1NC(=O)CNC(=O)[C@@H]2Cc3c([nH]c4cc(O)ccc34)[S@+]([O-])C[C@H](NC(=O)CNC1=O)C(=O)N[C@@H](CC(=O)O)C(=O)N1C[C@H](O)C[C@H]1C(=O)N[C@@H]([C@@H](C)[C@@H](O)CO)C(=O)N2
Vd: 0.39 L/kg

* * *

Test: Toxicokinetics after oral administration in mice
Type: in vivo
Conditions: mouse; male ICR mice, oral gavage 5 mg/kg, plasma elimination half-life, mean ± SD, n = 9
Experimental: The Institutional Animal Care and Use Committee of the Catholic University of Korea (approval number, CUK-IACUC-2021-004; approval date, 21 March 2021) approved the study protocol. […] Concentrations of β-amanitin in biological samples were evaluated following our previous methodology. […] The toxicokinetic parameters of β-amanitin were analyzed by non-compartmental analyses (WinNonlin, Pharsight; Mountain View, CA, USA) (Table 1). Data were expressed as mean ± standard deviations (SD). […]
property_measured: half-life (min)

test_smiles: CC[C@H](C)[C@@H]1NC(=O)CNC(=O)[C@@H]2Cc3c([nH]c4cc(O)ccc34)[S@+]([O-])C[C@H](NC(=O)CNC1=O)C(=O)N[C@@H](CC(=O)O)C(=O)N1C[C@H](O)C[C@H]1C(=O)N[C@@H]([C@@H](C)[C@@H](O)CO)C(=O)N2
observed_measurement: 132

* * *

Experiment: Toxicokinetics after intravenous injection in mice
Assay type: in vivo
Conditions: mouse; male ICR mice, iv bolus (tail vein) 0.2 mg/kg in water, plasma, LC-HRMS, non-compartmental, mean ± SD, n = 8

test_smiles: CC[C@H](C)[C@@H]1NC(=O)CNC(=O)[C@@H]2Cc3c([nH]c4cc(O)ccc34)[S@+]([O-])C[C@H](NC(=O)CNC1=O)C(=O)N[C@@H](CC(=O)O)C(=O)N1C[C@H](O)C[C@H]1C(=O)N[C@@H]([C@@H](C)[C@@H](O)CO)C(=O)N2
C0 (ng/mL): 712

* * *

Test: Toxicokinetics after intravenous injection in mice
Assay type: in vivo
Conditions: mouse, plasma; male ICR mice, iv bolus 0.4 mg/kg, AUMC/AUC, mean ± SD, n = 6

compound: CC[C@H](C)[C@@H]1NC(=O)CNC(=O)[C@@H]2Cc3c([nH]c4cc(O)ccc34)[S@+]([O-])C[C@H](NC(=O)CNC1=O)C(=O)N[C@@H](CC(=O)O)C(=O)N1C[C@H](O)C[C@H]1C(=O)N[C@@H]([C@@H](C)[C@@H](O)CO)C(=O)N2 [β-amanitin]
MRT: 22.4 min

* * *

Experiment: Toxicokinetics after intravenous injection in mice
Assay type: in vivo
Settings: mouse; male ICR mice, iv bolus 0.4 mg/kg, plasma elimination half-life, mean ± SD, n = 6

molecule: CC[C@H](C)[C@@H]1NC(=O)CNC(=O)[C@@H]2Cc3c([nH]c4cc(O)ccc34)[S@+]([O-])C[C@H](NC(=O)CNC1=O)C(=O)N[C@@H](CC(=O)O)C(=O)N1C[C@H](O)C[C@H]1C(=O)N[C@@H]([C@@H](C)[C@@H](O)CO)C(=O)N2 [β-amanitin]
unit_annotation: min
half-life: 18.3
